Test system: MCF7
assay-notes: Cytotoxicity against human MCF7 cells assessed as growth inhibition after 48 hrs by sulforhodamine B assay
Type: functional, cell-based
details: MCF7, 48 h
recorded-endpoint: IC50 (µM)
Just the number in µM, nothing appended.

In: // IC50 lookup, key: COC(=O)c1c(OC)cc2cc3c(c(O)c2c1C)C(=O)[C@]1(OC)C(=O)C=C(OC)[C@@H](O)[C@]1(O)C3=O
Out: 1.5

In: Subsequent entry: COC(=O)c1c(OC)cc2cc3c(c(O)c2c1C)C(=O)[C@@]1(O)C(OC)=CC(=O)[C@H](OC)[C@@]1(O)C3=O
Out: 16.2
